- Assayed system: GABA-A receptor; anion channel
- Measurement description: In vitro inhibition of [3H]muscimol to rat brain synaptic membranes
- Type: cell membranes, Membrane
Parameter measured: Ki (µM)
Give the value, in units of µM, as a plain number.

Consider the compound Cc1c(O)noc1C1CCNCC1 . State its measured Ki.
10

Annotate the compound Oc1noc(C2CCNCC2)c1Cc1ccccc1 with its measured Ki.
3.8

Answer with the recorded Ki of CCc1c(O)noc1C1CCNCC1 only.
6.3

Please look at this compound and report its Ki: Oc1noc(C2CCNCC2)c1CCc1ccc2ccccc2c1
0.49

Report measured Ki; entry is Oc1noc(C2CCNCC2)c1Cc1ccc2ccccc2c1
0.049

In one line, give reported Ki of the entry Oc1noc(C2CCNCC2)c1Cc1c2ccccc2cc2ccccc12 .
5.9
